Test system: DG-75
Assay: Growth inhibition of human DG75 cells after 48 hrs by trypan blue exclusion method
Format: functional, cell-based
Conditions: DG-75, 48 h
measured.parameter: IC50 (µM)
Reply numerically in µM, unit not repeated.

Please give the documented IC50 of CN(CCCCCl)P(=O)(OCc1ccc([N+](=O)[O-])o1)C(F)(F)C[C@H](NC(=O)CNC(=O)c1ccc(N)cc1)C(=O)NCCc1ccc(O)cc1 (stereo partly specified)
5
